Source: ChEMBL document CHEMBL1154981

Assay Details: Cytotoxicity against human C8166 cells by MTT assay
Assay type: cell-based
Observation Type: CC50

Record Cc1cn([C@H]2C[C@H](N=[N+]=[N-])[C@@H](CO)O2)c(=O)[nH]c1=O [ZIDOVUDINE] . Reported CC50: > 200 µg/mL

----------
Assay Details: Selectivity index, ratio of antiviral activity against HIV1-infected human C8166 cells over cytotoxicity against human C8166 cells
Type: toxicity, cell-based
Setup Conditions: uninfected and HIV-1-infected, read-out: Selectivity Index
selectivity ratio below 4 gives not fulfilled; selectivity ratio at or above it gives fulfilled.

Please check the record C[C@@H]1C(=O)O[C@H]2[C@@H]1O[C@]13O[C@@]4(CC[C@]5(C)C(=O)[C@@H](C)[C@H]2[C@H]15)C[C@]12OC(=O)C[C@H]1OC(C)(C)[C@@H]2C[C@@H]1O[C@@]14C3=O and state if its selectivity ratio is at or above 4.
not fulfilled

Please check the record C[C@@H]1C(=O)O[C@H]2[C@@H]1O[C@]13O[C@@]4(CC[C@]5(C)C(=O)[C@](C)(O)[C@@]2(O)[C@H]15)C[C@]12OC(=O)C[C@H]1OC(C)(C)[C@@H]2[C@@H](O)C[C@H]4C3=O and state if its selectivity ratio is at or above 4.
fulfilled

Please check the record CC1=C[C@H]([C@H]2O[C@]34C(=CC[C@@H]3[C@@H]2C)[C@@H]2[C@H](O)C[C@H]3C(C)(C)O[C@@H]5CC(=O)O[C@@]53C[C@@]2(O)C[C@@H]4O)OC1=O and state if its selectivity ratio is at or above 4.
not fulfilled

Please check the record C[C@@H]1C(=O)[C@@]2(C)CC[C@]34C[C@]56OC(=O)C[C@H]5O[C@@](C)(CO)[C@@H]6CC[C@@]3(O)C(=O)[C@@]3(O[C@]5(C[C@H](C)C(=O)O5)[C@@H]1[C@H]32)O4 and state if its selectivity ratio is at or above 4.
fulfilled

Please check the record C/C(=C/[C@H]1O[C@]23O[C@@]4(CC[C@]5(C)C(=O)[C@](C)(O)[C@H]1[C@H]25)C[C@]12OC(=O)C[C@H]1OC(C)(C)[C@@H]2CC=C4C3=O)C(=O)O and state if its selectivity ratio is at or above 4.
fulfilled

Please check the record CC1(C)O[C@@H]2CC(=O)O[C@@]23C[C@]24CC[C@]5(C)C(=O)[C@](C)(O)[C@]6(O)[C@H]7OC(=O)[C@](C)(O)[C@H]7O[C@@](O2)(C(=O)C4=CC[C@@H]13)[C@@H]65 and state if its selectivity ratio is at or above 4.
not fulfilled
